# Procedure text: Measurement of logP values by HPLC on reversed phase columns (EEC directive 79/831 Annex V.A8)
# Assay type: physicochemical
# Experimental parameters: reversed phase HPLC columns, pH 2.7; HCOOH method, reported in preparation example
Reported metric: chromatographic logP

compound="Cn1nnnc1/C(=N\\OCc1cccc(NC(=O)C2CC(c3ccccc3F)=NO2)n1)c1ccccc1 (stereo not shown)" readout_value=3.5

----------
# System: Phytophthora infestans
# Assay type: in vivo
# Experimental parameters: tomato plants, preventive spray, 100 ppm of active ingredient, evaluated 7 days after inoculation
I'd appreciate it if you marked entries condition met when Eff. % is lower than 90% and condition not met when it is not.

molecule="Cc1nnnn1C(=NOCc1csc(NC(=O)C2(C)CC(c3ccccc3)=NO2)n1)c1ccccc1 (stereo not shown)" assigned_category="condition not met"
molecule="Cc1nnnn1C(=NOCc1csc(NC(=O)C2CC(c3ccccc3F)=NO2)n1)c1ccccc1 (stereo not shown)" assigned_category="condition not met"
molecule="Cc1nnnn1C(=NOCc1cccc(NC(=O)C2CC(c3ccccc3F)=NO2)n1)c1ccccc1 (stereo not shown)" assigned_category="condition not met"
molecule="Cn1nnnc1C(=NOCc1csc(NC(=O)C2CC(c3c(F)cccc3Cl)=NO2)n1)c1ccccc1 (stereo not shown)" assigned_category="condition not met"
molecule="CCC1=NOC(C(=O)Nc2nc(CON=C(c3ccccc3)c3nnnn3C)cs2)C1 (stereo not shown)" assigned_category="condition met"
molecule="Cc1nnnn1C(=NOCc1csc(NC(=O)C2CC(c3cc(F)ccc3F)=NO2)n1)c1ccccc1 (stereo not shown)" assigned_category="condition not met"
molecule="Cn1nnnc1C(=NOCc1csc(NC(=O)C2CC(c3cc(F)ccc3F)=NO2)n1)c1ccccc1 (stereo not shown)" assigned_category="condition not met"
molecule="Cn1nnnc1C(=NOCc1csc(NC(=O)C2CC(c3ccccc3)=NO2)n1)c1ccccc1 (stereo not shown)" assigned_category="condition not met"
molecule="CC1=NOC(C)(C(=O)Nc2nc(CON=C(c3ccccc3)c3nnnn3C)cs2)C1 (stereo not shown)" assigned_category="condition met"
molecule="CC(C)C1=NOC(C(=O)Nc2nc(CON=C(c3ccccc3)c3nnnn3C)cs2)C1 (stereo not shown)" assigned_category="condition not met"
molecule="Cn1nnnc1/C(=N\\OCc1cccc(NC(=O)C2CC(c3ccccc3F)=NO2)n1)c1ccccc1 (stereo not shown)" assigned_category="condition not met"
molecule="Cc1nnnn1C(=NOCc1cccc(NC(=O)C2(C)CC(c3ccccc3)=NO2)n1)c1ccccc1 (stereo not shown)" assigned_category="condition not met"
molecule="Cn1nnnc1C(=NOCc1csc(NC(=O)C2CC(c3ccccc3F)=NO2)n1)c1ccccc1 (stereo not shown)" assigned_category="condition not met"

----------
The following molecules are listed with their measured LogP values.
# Procedure text: Measurement of logP values by HPLC on reversed phase columns (EEC directive 79/831 Annex V.A8)
# Format: physicochemical
# Experimental parameters: method [a]: pH 2,7, 0.1% formic acid in water / acetonitrile, linear gradient 10% to 95% acetonitrile
Reported metric: LogP

molecule="Cc1nnnn1C(=NOCc1csc(NC(=O)C2CC(c3ccccc3)=NO2)n1)c1ccccc1 (centres unmarked)" readout_value=3.35^[a]
molecule="Cn1nnnc1C(=NOCc1csc(NC(=O)C2CC(c3ccccc3F)=NO2)n1)c1ccccc1 (centres unmarked)" readout_value=3.29^[a]
molecule="Cc1nnnn1C(=NOCc1csc(NC(=O)C2CC(C(C)C)=NO2)n1)c1ccccc1 (centres unmarked)" readout_value=2.96^[a]
molecule="CCC1=NOC(C(=O)Nc2nc(CON=C(c3ccccc3)n3nnnc3C)cs2)C1 (centres unmarked)" readout_value=2.68^[a]
molecule="CCC1=NOC(C(=O)Nc2nc(CON=C(c3ccccc3)c3nnnn3C)cs2)C1 (centres unmarked)" readout_value=2.64^[a]
molecule="Cc1nnnn1C(=NOCc1csc(NC(=O)C2CC(c3c(F)cccc3Cl)=NO2)n1)c1ccccc1 (centres unmarked)" readout_value=3.48^[a]
molecule="CC1=NOC(C(=O)Nc2nc(CON=C(c3ccccc3)n3nnnc3C)cs2)C1 (centres unmarked)" readout_value=2.42^[a]
molecule="CC1=NOC(C)(C(=O)Nc2cccc(CON=C(c3ccccc3)c3nnnn3C)n2)C1 (centres unmarked)" readout_value=2.84^[a]
molecule="Cc1nnnn1C(=NOCc1cccc(NC(=O)C2(C)CC(c3ccccc3)=NO2)n1)c1ccccc1 (centres unmarked)" readout_value=3.94^[a]
molecule="Cn1nnnc1C(=NOCc1cccc(NC(=O)C2CC(c3ccccc3)=NO2)n1)c1ccccc1 (centres unmarked)" readout_value=3.51^[a]
molecule="Cc1nnnn1C(=NOCc1cccc(NC(=O)C2CC(c3ccccc3F)=NO2)n1)c1ccccc1 (centres unmarked)" readout_value=3.59^[a]
